Values compiled from ChEMBL document CHEMBL1153337.

# SUBJECT_OF_TEST: Gonadotropin-releasing hormone receptor (Rattus norvegicus)
# Sequence (P30969 whole entry): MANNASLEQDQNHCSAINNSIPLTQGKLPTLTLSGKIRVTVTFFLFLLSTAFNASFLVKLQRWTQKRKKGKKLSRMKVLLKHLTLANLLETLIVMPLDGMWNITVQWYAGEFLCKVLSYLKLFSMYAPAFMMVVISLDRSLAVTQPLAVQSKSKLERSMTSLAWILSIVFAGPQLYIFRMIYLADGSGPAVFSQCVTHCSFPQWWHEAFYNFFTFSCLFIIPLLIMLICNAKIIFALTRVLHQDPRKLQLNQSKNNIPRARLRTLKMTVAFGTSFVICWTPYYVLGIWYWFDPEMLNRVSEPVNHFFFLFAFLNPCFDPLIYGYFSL
Quick reference: pIC50 of the listed items.
// pIC50 here means minus log10 of the molar concentration (mol/L)

Before answering, review these 3 worked examples.
In [3]: df
Out[3]:
                                chem_smiles  reported_measurement
0  CCCCc1nc(CN2CCN(c3cccc4[nH]c(-c5ccc(C(C)(C)C)cc5)nc34)CC2)cn1C                  7.24
1  CCCCn1cnc(CN2CCN(c3cccc4[nH]c(-c5ccc(C(C)(C)C)cc5)nc34)CC2)c1C                  7.31
2  CCc1nc(C)c(CN2CCN(c3cccc4[nH]c(-c5ccc(C(C)(C)C)cc5)nc34)CC2)s1                  6.92

Req: Fill in pIC50 for record CCc1cc(CN2CCN(c3cccc4[nH]c(-c5ccc(C(C)(C)C)cc5)nc34)CC2)n(C)n1
Resp: 6.60

* * *

# SUBJECT_OF_TEST: CYP2D6 (Homo sapiens)
# Sequence (P10635 whole entry): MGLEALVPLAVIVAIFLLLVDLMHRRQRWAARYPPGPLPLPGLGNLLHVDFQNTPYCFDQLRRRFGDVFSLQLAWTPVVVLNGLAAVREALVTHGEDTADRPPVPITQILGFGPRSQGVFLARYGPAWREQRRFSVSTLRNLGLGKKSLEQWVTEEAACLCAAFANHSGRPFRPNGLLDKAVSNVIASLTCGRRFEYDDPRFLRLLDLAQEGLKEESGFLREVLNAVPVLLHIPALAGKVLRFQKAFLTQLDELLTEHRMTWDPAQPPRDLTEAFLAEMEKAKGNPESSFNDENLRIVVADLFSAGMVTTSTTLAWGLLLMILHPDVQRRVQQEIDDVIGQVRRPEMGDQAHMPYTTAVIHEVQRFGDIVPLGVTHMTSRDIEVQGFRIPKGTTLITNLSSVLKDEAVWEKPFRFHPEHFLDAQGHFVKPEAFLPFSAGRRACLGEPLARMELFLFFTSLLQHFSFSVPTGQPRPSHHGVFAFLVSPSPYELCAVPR
# MEASUREMENT_NOTES: Inhibition of CYP2D6 at 3 uM
# Type: ADME
Binary classification by inhibition at 3 µM, with 3% as an inclusive lower bound for rule met; all other cases are rule not met.

Req: Given CCn1cc(CN2CCN(c3cccc4[nH]c(-c5ccc(C(C)(C)C)cc5)nc34)CC2)c(=O)[nH]c1=O , state whether its inhibition at 3 µM is at least 3%.
Resp: rule not met

Req: I'd appreciate it if you could say whether CCn1cnc(CN2CCN(c3cccc4[nH]c(-c5ccc(C(C)(C)C)cc5)nc34)CC2)c1C has inhibition at 3 µM at least equal to 3%.
Resp: rule met

Req: # bool: inhibition at 3 µM of CCCn1cc(CN2CCN(c3cccc4[nH]c(-c5ccc(C(C)(C)C)cc5)nc34)CC2)nc1C >= 3%
Resp: rule met

Req: Assess whether reported inhibition at 3 µM for Cc1nc(CN2CCN(c3cccc4[nH]c(-c5ccc(C(C)(C)C)cc5)nc34)CC2)c[nH]1 sits at 3% or higher.
Resp: rule met

Req: Exam item: decide whether the reported inhibition at 3 µM for CCCCn1cnc(CN2CCN(c3cccc4[nH]c(-c5ccc(C(C)(C)C)cc5)nc34)CC2)c1C is at least 3%.
Resp: rule met

* * *

# SUBJECT_OF_TEST: UniProt:P30968
# Sequence (P30968 whole entry): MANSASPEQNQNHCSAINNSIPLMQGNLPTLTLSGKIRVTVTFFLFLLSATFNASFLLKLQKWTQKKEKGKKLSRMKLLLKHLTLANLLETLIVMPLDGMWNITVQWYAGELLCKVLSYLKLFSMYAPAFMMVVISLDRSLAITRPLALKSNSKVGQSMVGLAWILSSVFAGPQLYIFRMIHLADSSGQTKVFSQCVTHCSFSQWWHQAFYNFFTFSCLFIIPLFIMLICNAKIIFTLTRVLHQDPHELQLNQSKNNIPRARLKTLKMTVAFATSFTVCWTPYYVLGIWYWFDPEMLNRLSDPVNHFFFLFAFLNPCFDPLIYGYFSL
# MEASUREMENT_NOTES: Displacement of [125I]-(D-Trp6)-GnRH from human GnRH receptor
MEASURED_PROPERTY: pIC50
# pIC50: negative log10 of molar concentration; output just the value

                                chem_smiles  measured_property  reported_measurement
0  Cc1ccc(CN2CCN(c3cccc4[nH]c(-c5ccc(C(C)(C)C)cc5)nc34)CC2)o1              pIC50                  6.15

Req: Give pIC50 for the following molecule: Cc1nc(CN2CCN(c3cccc4[nH]c(-c5ccc(C(C)(C)C)cc5)nc34)CC2)c[nH]1
Resp: 8.12

Req: Return the recorded pIC50 value; entry: Cc1c(CN2CCN(c3cccc4[nH]c(-c5ccc(C(C)(C)C)cc5)nc34)CC2)ncn1C(C)C
Resp: 7.72

Req: Give recorded pIC50. CCc1nc(CN2CCN(c3cccc4[nH]c(-c5ccc(C(C)(C)C)cc5)nc34)CC2)cn1C
Resp: 7.74

Req: For CCc1cc(CN2CCN(c3cccc4[nH]c(-c5ccc(C(C)(C)C)cc5)nc34)CC2)nn1C , write its pIC50.
Resp: 7.37

* * *

# SUBJECT_OF_TEST: Gonadotropin-releasing hormone receptor (Homo sapiens, UniProt P30968)
# MEASUREMENT_NOTES: Displacement of [125I]-(D-Trp6)-GnRH from human GnRH receptor
Below is a list of entries, each paired with its recorded pIC50 value.
# reply with the number alone; pIC50 is -log10 of concentration in mol/L

// worked examples, pIC50 included
                                chem_smiles  reported_measurement
0  Cc1cc(CN2CCN(c3cccc4[nH]c(-c5ccc(C(C)(C)C)cc5)nc34)CC2)nn1C                  7.08
1  CCc1nc(C)c(CN2CCN(c3cccc4[nH]c(-c5ccc(C(C)(C)C)cc5)nc34)CC2)o1                  7.43
2  Cc1nc(CN2CCN(c3cccc4[nH]c(-c5ccc(C(C)(C)C)cc5)nc34)CC2)c(C)s1                  7.68
3  CCCn1cc(CN2CCN(c3cccc4[nH]c(-c5ccc(C(C)(C)C)cc5)nc34)CC2)nc1C                  7.74
4  Cn1cnc(CN2CCN(c3cccc4[nH]c(-c5ccc(C(C)(C)C)cc5)nc34)CC2)c1                  7.48

Req: Respond only with pIC50 recorded for Cc1nc(C)c(CN2CCN(c3cccc4[nH]c(-c5ccc(C(C)(C)C)cc5)nc34)CC2)s1
Resp: 7.57

Req: Give the reported value of pIC50 for this record: Cc1nc(C)c(CN2CCN(c3cccc4[nH]c(-c5ccc(C(C)(C)C)cc5)nc34)CC2)o1
Resp: 7.51

Req: Assign pIC50 to the following record: CCCn1c(CC)nc(C)c1CN1CCN(c2cccc3[nH]c(-c4ccc(C(C)(C)C)cc4)nc23)CC1
Resp: 7.24

* * *

# MEASUREMENT_NOTES: Solubility at pH 7.4
# Format: physicochemical
# STUDY_CONDITIONS: buffer
MEASURED_PROPERTY: solubility (µg/mL)
Answer with a number only, understood to be in µg/mL.

# count of solved cases: 5
>>> df
                                chem_smiles  measured_property  reported_measurement
0  CCCCn1cnc(CN2CCN(c3cccc4[nH]c(-c5ccc(C(C)(C)C)cc5)nc34)CC2)c1C         solubility                     3
1  Cc1nc(CN2CCN(c3cccc4[nH]c(-c5ccc(C(C)(C)C)cc5)nc34)CC2)cn1C         solubility                    51
2  Cc1nc(CN2CCN(c3cccc4[nH]c(-c5ccc(C(C)(C)C)cc5)nc34)CC2)c[nH]1         solubility                    46
3  CCc1nc(CN2CCN(c3cccc4[nH]c(-c5ccc(C(C)(C)C)cc5)nc34)CC2)c(C)n1CC         solubility                    25
4  CCCn1cc(CN2CCN(c3cccc4[nH]c(-c5ccc(C(C)(C)C)cc5)nc34)CC2)nc1C         solubility                    55

Please turn your attention to the following entry.
Req: Complete the entry with solubility for CCn1cc(CN2CCN(c3cccc4[nH]c(-c5ccc(C(C)(C)C)cc5)nc34)CC2)c(=O)[nH]c1=O
Resp: 13

* * *

Here, each record is paired with measured pIC50 data.
# SUBJECT_OF_TEST: Gonadotropin-releasing hormone receptor (Homo sapiens, UniProt P30968)
# MEASUREMENT_NOTES: Displacement of [125I]-(D-Trp6)-GnRH from human GnRH receptor
# log scale: pIC50 equals minus log10 of the concentration in mol/L

Illustrative cases are given below, each with its answer.
>>> df
                                chem_smiles                           subject_of_test  reported_measurement
0  CCCCc1nc(CN2CCN(c3cccc4[nH]c(-c5ccc(C(C)(C)C)cc5)nc34)CC2)cn1C  Gonadotropin-releasing hormone receptor (Homo sapiens, UniProt P30968)                  7.59
1  CCn1cc(CN2CCN(c3cccc4[nH]c(-c5ccc(C(C)(C)C)cc5)nc34)CC2)nc1C  Gonadotropin-releasing hormone receptor (Homo sapiens, UniProt P30968)                  8.00

Req: Tell me pIC50 reported for CCCn1c(CC)nc(CN2CCN(c3cccc4[nH]c(-c5ccc(C(C)(C)C)cc5)nc34)CC2)c1C
Resp: 7.54

Req: Output pIC50 of CCn1cnc(CN2CCN(c3cccc4[nH]c(-c5ccc(C(C)(C)C)cc5)nc34)CC2)c1C
Resp: 8.15
